Origin of measurements: ChEMBL document CHEMBL4513216

test: Toxicity liver stage against HepG2, at 10uM; assay type: cell-based; design: test concentration 10 uM, cell line HepG2-A16-CD81EGFP; conditions: human, HepG2-A16-CD81EGFP cells; read-out: INHIBITION
Items are presented alongside their recorded cytotoxicity at 10 µM.
The response must be a number in % with no trailing unit.

Solved cases below.
> print(dat)
                                   compound  observedmeasurement
1  COc1cc(C2(C(=O)NC3CCN(C4CC4)CC3)CC2)ccc1C                 5.16
2    CC(C)COC1CCN(S(=O)(=O)Cc2cccc(F)c2)CC1                -2.11
3     Cn1ccnc1CN1CCC2(CC1)CCN(c1cncnc1)C2=O                  -65
4  O=C(Cc1csc(-c2ccccc2F)n1)NCc1cccc(C(=O)O)c1                -5.48

Ask: Entry CCOC(=O)c1n[nH]cc1-c1cncn1CC(C)n1nc(C)cc1C (centres undefined) : reported cytotoxicity at 10 µM = ?
Result: 2.25

Ask: GET /values?readout=cytotoxicity at 10 µM&item= CCOc1cc(CNC(C)c2ccc(F)cc2)ccn1 (centres undefined)
Result: 10.9

Ask: Give its cytotoxicity at 10 µM value. Item: `COc1cccc2ccc(CN3CCN(c4ncccn4)CC3)nc12`
Result: -2.13

Ask: So what does the record say about cytotoxicity at 10 µM for `Cc1ccc(C(=O)N(C)S(C)(=O)=O)cc1Cl` ?
Result: -46.5

Ask: Any idea what cytotoxicity at 10 µM was measured for CCCN1CCCC2(CCN(c3nccc(OC)n3)C2)C1=O (centres undefined) ?
Result: -4.74

Ask: # input compound: Cc1cnn(CC2CCCN2Cc2coc(-c3ccccc3)n2)c1 (centres undefined) ; wanted: its cytotoxicity at 10 µM
Result: -5.26

Ask: Could you share which cytotoxicity at 10 µM value was measured for `CS(=O)(=O)c1ccc(-c2ccccc2C(=O)O)cc1` ?
Result: 0.238

Ask: Record request: cytotoxicity at 10 µM value, item COc1cccc(CCC2CCCN(Cc3ncc[nH]3)C2)c1 (centres undefined)
Result: 1.13

Ask: Could you share which cytotoxicity at 10 µM value was measured for `Cn1cnc(-c2cc(C(=O)N3CCOCC3)c3ccccn23)c1` ?
Result: 4.79

Ask: Look at this compound and give its reported cytotoxicity at 10 µM. `O=C1CC2(CCNCC2)C(=O)N1Cc1ccc(F)cc1`
Result: 6.68
